Assay: log P by reversed-phase HPLC (EEC Directive 79/831 Annex V.A8)
Type: physicochemical
Conditions: pH 2.7
READOUT LABEL: logP [a] = log P (HCOOH)

| SUBSTANCE SMILES | logP [a] = log P (HCOOH) |
| --- | --- |
| CS(=O)(=O)c1ccccc1-c1cnc2cc(Cl)ccc2n1 | 2.52 |
| FC(F)(F)c1ccccc1-c1cnc2cc(Cl)ccc2n1 | 4.17 |
| Clc1ccc2nc(-c3ccncc3Cl)cnc2c1 | 2.99 |

* * *

Experiment: log P by reversed-phase HPLC (EEC Directive 79/831 Annex V.A8)
Format: physicochemical
Conditions: pH 2.7
READOUT LABEL: logP [a] = log P (HCOOH)

| COMPOUND | logP [a] = log P (HCOOH) |
| --- | --- |
| FC(F)(F)c1ccc2nc(-c3ccncc3Cl)cnc2c1 | 3.27 |
| CSc1ccccc1-c1cnc2cc(C(F)(F)F)ccc2n1 | 4.45 |
| Clc1cc2ncc(-c3ccncc3Cl)nc2cc1Cl | 3.78 |
| CCc1cnccc1-c1cnc2cc(C(F)(F)F)ccc2n1 | 2.53 |
| CCSc1ccccc1-c1cnc2cc3c(cc2n1)OC(F)(F)O3 | 4.73 |
| Cc1cnccc1-c1cnc2cc(Cl)c(Cl)cc2n1 | 2.51 |
| CSc1ccccc1-c1cnc2cc(Cl)ccc2n1 | 4.08 |
| CCSc1ccccc1-c1cnc2ccc(C(F)(F)F)cc2n1 | 4.79 |
| CC[S+]([O-])c1ccccc1-c1cnc2cc(Cl)ccc2n1 (centres unmarked) | 2.66 |
| Cc1ccsc1-c1cnc2cc(C(F)(F)F)ccc2n1 | 4.67 |
| Cc1ccc(-c2c[n+]([O-])c3ccc(C(F)(F)F)cc3n2)c(F)c1 | 4.04 |
| Cc1cscc1-c1cnc2cc(C(F)(F)F)ccc2n1 | 4.57 |
| Cc1cccnc1-c1cnc2cc(C(F)(F)F)ccc2n1 | 3.69 |
| Cc1cscc1-c1cnc2ccc(C(F)(F)F)cc2n1 | 4.57 |
| CCSc1ccccc1-c1cnc2cc(C(F)(F)F)ccc2n1 | 4.80 |
| COc1cnccc1-c1cnc2cc(C(F)(F)F)ccc2n1 | 2.59 |
| CCSc1ccccc1-c1cnc2ccc(S(C)(=O)=O)cc2n1 | 2.85 |
| CCSc1ccccc1-c1cnc2cc(C#N)ccc2n1 | 3.60 |
| Cc1cnccc1-c1cnc2ccc(C(F)(F)F)cc2n1 | 2.12 |
| Cc1cnccc1-c1cnc2ccc(S(C)(=O)=O)cc2n1 | 0.72 |

* * *

Experiment: log P by reversed-phase HPLC (EEC Directive 79/831 Annex V.A8)
Assay type: physicochemical
Conditions: pH 2.7
READOUT LABEL: logP [a] = log P (HCOOH)

A selection of reference data follows.
| SUBSTANCE SMILES | RECORDED VALUE |
| --- | --- |
| Fc1cc2ncc(-c3ccncc3Cl)nc2cc1F | 2.72 |
| Cc1cnccc1-c1nc2ccc(C(F)(F)F)cc2nc1Cl | 2.94 |
| Cc1cnccc1-c1nc2cc3c(cc2nc1C)OC(F)(F)O3 | 2.02 |
| CCSc1ccccc1-c1cnc2cc(Cl)ccc2n1 | 4.56 |
| Cc1cnccc1-c1cnc2cc3c(cc2n1)OC(F)(F)O3 | 1.99 |
| Cc1cnccc1-c1nc2cc(F)c(F)cc2nc1C | 1.58 |
| CCSc1ccccc1-c1cnc2cc(Cl)c(Cl)cc2n1 | 5.38 |
| Cc1cnccc1-c1cnc2cc(F)c(F)cc2n1 | 1.55 |

A: CCOc1ncccc1-c1cnc2cc(C(F)(F)F)ccc2n1
B: CCS(=O)(=O)c1ccccc1-c1cnc2cc(Cl)ccc2n1
Task: Pick the one with the larger logP [a] = log P (HCOOH): A vs B State the label of the item chosen.
Result: A
